Assay: Oral bioavailability in CD1 mouse at 10 mg/kg
Format: ADME, organism-based
Conditions: in vivo
endpoint: bioavailability (%)

>>> test_result("CCCOc1cc(OCCCCN(C)C)cc(Oc2cc3c(cc2NS(=O)(=O)c2ccc(OC)c(OC)c2)n(C)c(=O)n3C)c1")
29

This collection of values is drawn from ChEMBL document CHEMBL3774340.
